Catalogue of INHIBITION readings, one per entry.
- Test system: Plasmodium berghei
- PROCEDURE_SUMMARY: Screen against P. berghei liver stage (PbLuc), transformed with Luciferase, at 10uM
- Type: functional, HepG2
- ASSAY_SETUP: tested at 10 uM
The whole screen tested about 69,000 compounds, of which about 8,600 (12%) showed an effect of 50% or more. Many of the other results were omitted from the sample, so strong results are more common in it than they were.
ENDPOINT: INHIBITION (%)

COMPOUND | ENDPOINT | MEAS_VALUE
NCCn1nc(C2CCN(Cc3ccc(Cl)c(Cl)c3)C2)c2nccnc21 (stereo unspecified) | INHIBITION | 71.1
CCn1cc(S(=O)(=O)NC(=O)CCc2c[nH]c3ccccc23)cn1 | INHIBITION | 61.5
CCNC(=O)C1(Cc2cc(-c3ccccc3)no2)CCCN(C(C)C)C1 (stereo unspecified) | INHIBITION | 4.41
Cc1cc(C)c(CNc2cnc3ccccc3n2)c(=O)[nH]1 | INHIBITION | -1.35
CNC(=O)[C@H]1C[C@H]2CN(C(=O)NC(C)C)C[C@@H]1O2 | INHIBITION | 57.5
CC(C)NC(=O)[C@H]1C[C@H]2CN(C(=O)NC(C)C)C[C@@H]1O2 | INHIBITION | 24
COc1ccc(OCCN2CCC(N3CCNC3=O)CC2)cc1 | INHIBITION | 87.25
Cc1ccc(C)c(OCCN2CCC(N3CCNC3=O)CC2)c1 | INHIBITION | 38.1
O=C(N1CCCC1)N1CC[C@H]2[C@H]1CCN2c1ncccn1 | INHIBITION | 19.8
CCS(=O)(=O)N1CCC2(CC(=O)N(c3ccc4c(c3)OCO4)C2)C1 (stereo unspecified) | INHIBITION | -30.6
CN1CCN(C2CCN(CCOc3ccc(Cl)cc3)CC2)C1=O | INHIBITION | 36.1
COc1ccccc1OCCN1CCC(N2CCNC2=O)CC1 | INHIBITION | 36.4
CCOC(=O)CCNC(=O)N1CCCC(CNC(=O)c2ccco2)C1 (stereo unspecified) | INHIBITION | 15.7
COc1ccccc1CN1CCC(c2nn(CCN)c3nccnc23)C1 (stereo unspecified) | INHIBITION | 52
CC(C)CS(=O)(=O)N1C[C@@H]2C[C@H](C(=O)N3CCCC3)[C@H](C1)O2 | INHIBITION | 32.5
O=C(NCCCn1cncn1)N1CCCCCC1 | INHIBITION | 20.45
NCCn1nc(C2CCN(Cc3ccccc3Cl)C2)c2nccnc21 (stereo unspecified) | INHIBITION | -49
CN1CCN(C2CCN(CCOc3cccc(Cl)c3)CC2)C1=O | INHIBITION | 51.1
O=C(c1ccc[nH]1)N1CCc2nnc(Cn3cccc3)n2CC1 | INHIBITION | -6.25
CCn1cc(S(=O)(=O)NC(CO)Cc2c[nH]c3ccccc23)cn1 (stereo unspecified) | INHIBITION | 19.3
Cc1cc(C)c(CNc2ncnc3ccccc23)c(=O)[nH]1 | INHIBITION | 14.7
O=C(c1cccs1)N1CCc2c(nc(N3CCCCC3)[nH]c2=O)C1 | INHIBITION | 37.6
O=C(NCCCn1nc2ccccn2c1=O)NCC(C1CC1)C1CC1 | INHIBITION | -20
CS(=O)(=O)N1CC[C@]2(O)CCN(c3ccnc(N)n3)C[C@@H]2C1 | INHIBITION | 20.8
CCOc1ccc(OCCN2CCC(N3CCNC3=O)CC2)cc1 | INHIBITION | 81.8
Cc1cccc2c(=O)c(C(=O)N3CCCC4(CN(C)C(=O)O4)C3)c[nH]c12 (stereo unspecified) | INHIBITION | 60.1
CC(C)NC(=O)N1C[C@@H]2C[C@H](C(=O)N3CCCC3)[C@H](C1)O2 | INHIBITION | 43.9
O=C(Nc1ccccc1)N1C[C@@H]2C[C@H](C(=O)N3CCOCC3)[C@H](C1)O2 | INHIBITION | 55.4
COc1cccc(CN2CCC(c3nn(CCN)c4nccnc34)C2)c1 (stereo unspecified) | INHIBITION | 7.52
Fc1ccc(CN[C@@H]2COC[C@H]2c2ccc(F)cc2)cc1 | INHIBITION | -27.1
COc1ccccc1CN1CCC(c2nccc(C)n2)C1 (stereo unspecified) | INHIBITION | 38.3

Data provenance: ChEMBL document CHEMBL4513216
